// provenance: patent US6962933B1

What melting point was measured for each of the following?

{"columns": ["compound", "quantity_name", "observed"],
 "data": [
  ["COc1ccc(-c2nc(NC(=O)c3ccncc3)sc2-c2ccncc2)cc1 [Reference Example 23-102]", "melting point", "295 to 297 °C"],
  ["CCNC(=O)Nc1nc(-c2ccc(OC)cc2)c(-c2ccncc2)s1 [Reference Example 23-156]", "melting point", "224 to 226 °C"],
  ["Cc1ccc(-c2nc(-c3ccc(CSCc4ccc(-c5nc(-c6ccc(C)c(C)c6)c(-c6ccncc6)s5)cc4)cc3)sc2-c2ccncc2)cc1C [Reference Example 23-326]", "melting point", "159 to 161 °C"],
  ["Cc1ccc(-c2nc(N)sc2-c2ccncc2)cc1 [Reference Example 23-62]", "melting point", "296 to 298 °C"],
  ["CC(=O)Nc1nc(-c2cccc(C)c2)c(-c2ccncc2)s1 [Reference Example 23-51]", "melting point", "287 to 289 °C"]
]}

Quick batch: melting point for everything below.
1. Nc1nc(-c2cccc(Cl)c2)c(-c2ccncc2)s1 [Reference Example 23-59]
2. COc1ccc(-c2nc(NC(=O)c3ccc(C(=O)O)cc3)sc2-c2ccncc2)cc1 [Reference Example 23-299]
3. COc1ccc(-c2nc(N)sc2-c2ccncc2)cc1 [Reference Example 13-14]

1: 256 to 258 °C; 2: 332 to 335 °C; 3: 282 to 284 °C

---

What melting point was measured for each of the following?

In the examples that follow, each entry is paired with its recorded melting point.
{"columns": ["compound", "melting point"],
 "data": [
  ["Cc1ccc(-c2nc(-c3ccc(CS(=O)(=O)Cc4ccc(-c5nc(-c6ccc(C)c(C)c6)c(-c6ccncc6)s5)cc4)cc3)sc2-c2ccncc2)cc1C [Reference Example 23-328]", "194 to 196 °C"],
  ["COc1ccc(-c2nc(NC(=O)CO)sc2-c2ccncc2)cc1 [Reference Example 23-329]", "228 to 230 °C"],
  ["COc1ccc(-c2nc(NC(C)C)sc2-c2ccncc2)cc1 [Reference Example 23-291]", "161 to 163 °C"],
  ["CCC(=O)Nc1nc(-c2cccc(C)c2)c(-c2ccncc2)s1 [Reference Example 23-52]", "258 to 260 °C"],
  ["O=S(=O)(Cc1ccc(-c2nc(-c3ccc(F)cc3)c(-c3ccncc3)s2)cc1)Cc1ccc(-c2nc(-c3ccc(F)cc3)c(-c3ccncc3)s2)cc1 [Reference Example 23-313]", "191 to 194 °C"],
  ["CCC(=O)Nc1nc(-c2cccc(Cl)c2)c(-c2ccncc2)s1 [Reference Example 23-50]", "289 to 290 °C"],
  ["Cc1cccc(-c2nc(-c3ccc([S+](C)[O-])cc3)sc2-c2ccncc2)c1 (stereo not drawn) [Reference Example 44-8]", "188 to 189 °C"],
  ["CNc1nc(-c2ccccc2)c(-c2ccncc2)s1 [Reference Example 13-47]", "191 to 192 °C"],
  ["Nc1nc(-c2ccc(Cl)cc2)c(-c2ccncc2)s1 [Reference Example 23-61]", "> 300 °C"],
  ["O=S(=O)(Cc1ccc(-c2nc(-c3ccc(Cl)cc3)c(-c3ccncc3)s2)cc1)Cc1ccc(-c2nc(-c3ccc(Cl)cc3)c(-c3ccncc3)s2)cc1 [Reference Example 23-314]", "202 to 204 °C"]
]}

Quick batch: melting point for everything below.
1. CNc1nc(-c2ccc(Br)cc2)c(-c2ccncc2)s1 [Reference Example 13-71]
2. Cc1cc(C)cc(-c2nc(NC(=O)c3ccncc3)sc2-c2ccncc2)c1 [Reference Example 23-200]
3. COc1ccc(-c2nc(Nc3ccccc3)sc2-c2ccncc2)cc1 [Reference Example 23-80]
4. COc1ccc(-c2nc(NC(=O)C(C)O)sc2-c2ccncc2)cc1 (stereo not drawn) [Reference Example 23-325]
5. CSc1ccc(-c2nc(-c3cccc(C)c3)c(-c3ccncc3)s2)cc1 [Reference Example 44-7]

1. 206 to 207 °C
2. 302 to 304 °C
3. 287 to 289 °C
4. 221 to 222 °C
5. 101 to 102 °C
